experiment: Half life in cynomolgus monkey liver microsomes; format: ADME, Macaca fascicularis, Microsome
Would you kindly list half-life for each of these molecules?

1. [2H]C([2H])([2H])N1C(=O)C(F)CC1C(=O)N[C@@H]1CC[C@@]2(S(=O)(=O)c3ccc(F)cc3)c3ccc(C(F)(C(F)(F)F)C(F)(F)F)cc3CC[C@@H]12 (single isomer, unassigned) : 0.4 h

So, `CC(C)(O)C(=O)N[C@@H]1CC[C@@]2(S(=O)(=O)c3ccc(F)cc3)c3ccc(C(F)(C(F)(F)F)C(F)(F)F)cc3CC[C@@H]12` ? Its half-life was 2 h

* * *

experiment: Protein binding in human assessed as unbound fraction; type: ADME
Measured quantity: fraction unbound

So, `CC(C)(O)C(=O)N[C@@H]1CC[C@@]2(S(=O)(=O)c3ccc(F)cc3)c3ccc(C(F)(C(F)(F)F)C(F)(F)F)cc3CC[C@@H]12` ? Its fraction unbound was 0.005

* * *

test: Cmax in mouse at 4 mg/kg, po; assay type: ADME, organism-based; set-up: route oral, dose 4 mg/kg; conditions: in vivo
Measured quantity: Cmax (nM)
Give bare numbers, in nM.

So, `CC(C)(O)C(=O)N[C@@H]1CC[C@@]2(S(=O)(=O)c3ccc(F)cc3)c3ccc(C(F)(C(F)(F)F)C(F)(F)F)cc3CC[C@@H]12` ? Its Cmax was 2200

* * *

molecular target: Voltage-gated inwardly rectifying potassium channel KCNH2 (Homo sapiens); experiment: Inhibition of human ERG by patch-clamp assay
Sequence (Q12809 whole entry): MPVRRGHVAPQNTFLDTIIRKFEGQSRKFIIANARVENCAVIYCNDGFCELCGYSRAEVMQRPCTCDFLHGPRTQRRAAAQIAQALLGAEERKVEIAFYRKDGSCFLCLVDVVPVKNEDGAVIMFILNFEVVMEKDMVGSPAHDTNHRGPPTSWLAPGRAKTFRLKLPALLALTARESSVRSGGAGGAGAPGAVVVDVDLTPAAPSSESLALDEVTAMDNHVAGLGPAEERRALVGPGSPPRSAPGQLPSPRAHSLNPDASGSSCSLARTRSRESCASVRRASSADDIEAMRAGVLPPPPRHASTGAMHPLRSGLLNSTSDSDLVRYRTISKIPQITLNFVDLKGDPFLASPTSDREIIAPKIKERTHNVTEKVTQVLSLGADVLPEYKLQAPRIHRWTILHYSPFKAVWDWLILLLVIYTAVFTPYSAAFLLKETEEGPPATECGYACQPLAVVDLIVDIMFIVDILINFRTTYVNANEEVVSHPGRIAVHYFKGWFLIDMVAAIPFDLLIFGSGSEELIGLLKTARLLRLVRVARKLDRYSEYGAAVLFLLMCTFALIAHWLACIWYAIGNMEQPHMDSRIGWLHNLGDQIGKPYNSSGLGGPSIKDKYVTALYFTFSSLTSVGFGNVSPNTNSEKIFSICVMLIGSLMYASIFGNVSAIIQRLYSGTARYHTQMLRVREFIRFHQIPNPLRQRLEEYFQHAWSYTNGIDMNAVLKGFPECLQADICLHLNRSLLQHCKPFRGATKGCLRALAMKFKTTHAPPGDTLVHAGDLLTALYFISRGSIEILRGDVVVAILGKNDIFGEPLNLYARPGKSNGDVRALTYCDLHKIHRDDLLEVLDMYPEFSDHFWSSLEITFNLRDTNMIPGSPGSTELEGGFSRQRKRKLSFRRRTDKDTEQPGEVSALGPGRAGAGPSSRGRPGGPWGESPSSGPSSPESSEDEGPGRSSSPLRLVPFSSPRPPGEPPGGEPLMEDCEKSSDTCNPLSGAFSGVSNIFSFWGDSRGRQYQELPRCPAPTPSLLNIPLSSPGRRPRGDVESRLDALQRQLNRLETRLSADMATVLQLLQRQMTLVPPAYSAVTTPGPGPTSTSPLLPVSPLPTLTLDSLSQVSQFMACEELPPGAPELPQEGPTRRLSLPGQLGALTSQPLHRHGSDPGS
Measured quantity: pIC50
One number for each entry, as −log10 of the molar value.

So, `CC(C)(O)C(=O)N[C@@H]1CC[C@@]2(S(=O)(=O)c3ccc(F)cc3)c3ccc(C(F)(C(F)(F)F)C(F)(F)F)cc3CC[C@@H]12` ? Its pIC50 was 4.72

* * *

test: AUC (0 to 24 hrs) in dog at 2 mg/kg, po; type: ADME, organism-based, Canis lupus familiaris; parameters: time < 24 hr, route oral, dose 2 mg/kg; details: in vivo
Measured quantity: AUC(0-t) at 24 h (µM·h)
One number for each entry, in µM·h.

So, `CC(C)(O)C(=O)N[C@@H]1CC[C@@]2(S(=O)(=O)c3ccc(F)cc3)c3ccc(C(F)(C(F)(F)F)C(F)(F)F)cc3CC[C@@H]12` ? Its AUC(0-t) at 24 h was 59.8

* * *

test: Oral bioavailability in mouse at 4 mg/kg; format: ADME, organism-based; details: in vivo
Measured quantity: bioavailability (%)
Answers are plain numbers, in %.

So, `CC(C)(O)C(=O)N[C@@H]1CC[C@@]2(S(=O)(=O)c3ccc(F)cc3)c3ccc(C(F)(C(F)(F)F)C(F)(F)F)cc3CC[C@@H]12` ? Its bioavailability was 100

* * *

test: Cmax in cynomolgus monkey at 2 mg/kg, po; assay type: ADME, organism-based, Macaca fascicularis; design: route oral, dose 2 mg/kg; details: in vivo
Measured quantity: Cmax (nM)
Numbers only, in nM.

So, `CC(C)(O)C(=O)N[C@@H]1CC[C@@]2(S(=O)(=O)c3ccc(F)cc3)c3ccc(C(F)(C(F)(F)F)C(F)(F)F)cc3CC[C@@H]12` ? Its Cmax was 1100

* * *

biological target: UniProtKB P55055; assay: Inverse agonist activity at LXRbeta (unknown origin)
Sequence (P55055 whole entry): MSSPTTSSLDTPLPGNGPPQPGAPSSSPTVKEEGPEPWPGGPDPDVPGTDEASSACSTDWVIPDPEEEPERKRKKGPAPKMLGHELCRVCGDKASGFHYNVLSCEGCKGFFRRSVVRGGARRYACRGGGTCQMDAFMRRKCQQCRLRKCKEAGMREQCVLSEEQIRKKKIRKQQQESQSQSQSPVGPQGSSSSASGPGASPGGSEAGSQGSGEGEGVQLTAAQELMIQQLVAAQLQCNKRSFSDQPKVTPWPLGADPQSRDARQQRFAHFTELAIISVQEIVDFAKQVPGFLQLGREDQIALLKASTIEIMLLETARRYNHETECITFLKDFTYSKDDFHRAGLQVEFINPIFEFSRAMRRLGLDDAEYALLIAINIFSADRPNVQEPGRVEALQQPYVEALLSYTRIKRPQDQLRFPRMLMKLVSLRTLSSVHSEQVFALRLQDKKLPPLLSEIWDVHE
Measured quantity: EC50

So, `CC(C)(O)C(=O)N[C@@H]1CC[C@@]2(S(=O)(=O)c3ccc(F)cc3)c3ccc(C(F)(C(F)(F)F)C(F)(F)F)cc3CC[C@@H]12` ? Its EC50 was > 5 µM
